These measurements were taken from ChEMBL document CHEMBL4229410.

Target: Inhibitor of nuclear factor kappa-B kinase subunit beta (Homo sapiens, UniProt O14920)
Sequence (O14920 whole entry, the tested form may be a part): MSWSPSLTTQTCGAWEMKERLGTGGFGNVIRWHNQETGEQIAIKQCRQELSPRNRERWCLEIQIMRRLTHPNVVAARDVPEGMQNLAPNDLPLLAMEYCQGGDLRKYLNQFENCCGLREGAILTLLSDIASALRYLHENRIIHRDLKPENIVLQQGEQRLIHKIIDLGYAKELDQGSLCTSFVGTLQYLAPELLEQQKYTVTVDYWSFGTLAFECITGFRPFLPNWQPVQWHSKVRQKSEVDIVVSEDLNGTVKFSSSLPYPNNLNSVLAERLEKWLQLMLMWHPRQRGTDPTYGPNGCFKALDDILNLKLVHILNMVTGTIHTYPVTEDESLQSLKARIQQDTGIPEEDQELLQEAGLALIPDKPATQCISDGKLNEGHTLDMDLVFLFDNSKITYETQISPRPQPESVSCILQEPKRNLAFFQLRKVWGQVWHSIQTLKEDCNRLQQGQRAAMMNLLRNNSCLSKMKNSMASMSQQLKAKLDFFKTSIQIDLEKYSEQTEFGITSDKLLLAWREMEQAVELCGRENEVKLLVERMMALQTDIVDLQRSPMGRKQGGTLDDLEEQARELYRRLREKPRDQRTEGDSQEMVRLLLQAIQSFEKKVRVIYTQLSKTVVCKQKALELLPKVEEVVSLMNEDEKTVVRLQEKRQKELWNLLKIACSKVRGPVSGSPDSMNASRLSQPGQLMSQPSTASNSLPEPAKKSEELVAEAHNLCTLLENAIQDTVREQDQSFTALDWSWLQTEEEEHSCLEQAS
Assay: Binding affinity to full length human IKKbeta (M1 to S756 residues) expressed in mammalian expression system by KINOMEscan assay
attribute measured: Kd

(Q) Look up Kd: `CC(C)CN(C(=O)c1cccnc1)c1c2ccccc2c(=O)n2c1[nH]c1ccccc12`
(A) ≥ 5 µM

----------
Molecular target: Mast/stem cell growth factor receptor Kit (Homo sapiens, UniProt P10721, T670I/V559D)
Sequence (P10721 26-976 V559D/T670I limits assumed): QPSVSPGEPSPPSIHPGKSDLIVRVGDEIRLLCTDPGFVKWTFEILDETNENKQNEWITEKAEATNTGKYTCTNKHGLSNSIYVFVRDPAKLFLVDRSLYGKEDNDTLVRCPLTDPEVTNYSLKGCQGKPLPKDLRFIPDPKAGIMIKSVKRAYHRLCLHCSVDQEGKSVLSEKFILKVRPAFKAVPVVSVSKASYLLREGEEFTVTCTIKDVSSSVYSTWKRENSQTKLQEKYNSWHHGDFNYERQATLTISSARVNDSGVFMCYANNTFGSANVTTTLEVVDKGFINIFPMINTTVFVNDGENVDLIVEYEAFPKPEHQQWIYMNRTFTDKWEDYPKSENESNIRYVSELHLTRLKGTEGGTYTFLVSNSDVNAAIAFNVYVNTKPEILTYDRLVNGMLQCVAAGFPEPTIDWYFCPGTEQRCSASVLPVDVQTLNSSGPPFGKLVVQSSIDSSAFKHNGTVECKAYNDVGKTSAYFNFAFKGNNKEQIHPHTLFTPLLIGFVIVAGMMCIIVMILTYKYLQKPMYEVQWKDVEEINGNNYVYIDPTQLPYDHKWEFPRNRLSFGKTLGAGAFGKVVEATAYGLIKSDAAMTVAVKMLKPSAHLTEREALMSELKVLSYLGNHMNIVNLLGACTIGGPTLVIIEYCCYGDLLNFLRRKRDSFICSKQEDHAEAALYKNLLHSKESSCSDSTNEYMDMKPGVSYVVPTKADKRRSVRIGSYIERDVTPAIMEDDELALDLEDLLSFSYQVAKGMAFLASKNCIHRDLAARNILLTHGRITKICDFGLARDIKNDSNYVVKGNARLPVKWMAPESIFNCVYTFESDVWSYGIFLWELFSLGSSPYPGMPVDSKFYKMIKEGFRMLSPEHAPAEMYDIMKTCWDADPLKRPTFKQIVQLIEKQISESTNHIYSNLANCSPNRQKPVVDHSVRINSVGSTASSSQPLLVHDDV
Test: Binding affinity to human KIT (I571 to D952 residues) V559D/T670I double mutant expressed in bacterial expression system by KINOMEscan assay
attribute measured: Kd

(Q) Using the record for `CC(C)CN(C(=O)c1cccnc1)c1c2ccccc2c(=O)n2c1[nH]c1ccccc12` , report its Kd.
(A) ≥ 5 µM

----------
Target: Tyrosine-protein kinase JAK2 (Homo sapiens, UniProt O60674)
Sequence (O60674 whole entry, the tested form may be a part): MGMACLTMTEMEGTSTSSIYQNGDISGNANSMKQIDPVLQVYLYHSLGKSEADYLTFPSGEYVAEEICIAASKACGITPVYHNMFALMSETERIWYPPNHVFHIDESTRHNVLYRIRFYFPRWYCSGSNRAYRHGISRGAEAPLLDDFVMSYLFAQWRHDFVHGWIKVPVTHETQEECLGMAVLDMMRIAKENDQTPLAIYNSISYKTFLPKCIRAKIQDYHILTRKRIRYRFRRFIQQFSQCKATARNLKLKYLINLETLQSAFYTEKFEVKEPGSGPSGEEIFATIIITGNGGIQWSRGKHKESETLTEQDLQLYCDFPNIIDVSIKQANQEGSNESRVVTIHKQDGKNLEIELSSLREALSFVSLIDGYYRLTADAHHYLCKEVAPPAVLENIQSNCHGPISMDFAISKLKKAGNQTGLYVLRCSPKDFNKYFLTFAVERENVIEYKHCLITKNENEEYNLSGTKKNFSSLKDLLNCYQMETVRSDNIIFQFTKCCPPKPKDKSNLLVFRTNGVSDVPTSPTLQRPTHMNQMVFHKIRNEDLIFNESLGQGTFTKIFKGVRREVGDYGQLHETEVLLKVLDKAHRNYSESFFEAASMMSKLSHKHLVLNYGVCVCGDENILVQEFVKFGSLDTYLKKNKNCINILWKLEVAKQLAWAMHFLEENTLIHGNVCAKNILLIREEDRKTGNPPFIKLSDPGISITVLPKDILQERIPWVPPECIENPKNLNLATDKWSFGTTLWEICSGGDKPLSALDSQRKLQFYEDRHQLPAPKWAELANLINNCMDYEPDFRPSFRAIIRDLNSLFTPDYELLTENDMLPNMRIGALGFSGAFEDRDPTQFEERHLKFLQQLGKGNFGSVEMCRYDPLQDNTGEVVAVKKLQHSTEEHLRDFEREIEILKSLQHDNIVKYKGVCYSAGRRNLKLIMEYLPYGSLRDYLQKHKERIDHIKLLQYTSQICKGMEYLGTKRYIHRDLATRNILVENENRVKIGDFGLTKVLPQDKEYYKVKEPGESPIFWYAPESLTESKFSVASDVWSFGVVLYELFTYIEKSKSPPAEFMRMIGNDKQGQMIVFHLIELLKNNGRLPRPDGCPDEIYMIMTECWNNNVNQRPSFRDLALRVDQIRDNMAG
Assay: Binding affinity to human JAK2 JH1 catalytic domain (A829 to G1132 residues) expressed in mammalian expression system by KINOMEscan assay
attribute measured: Kd

(Q) Find the recorded Kd belonging to `CC(C)CN(C(=O)c1cccnc1)c1c2ccccc2c(=O)n2c1[nH]c1ccccc12` and report it.
(A) ≥ 5 µM

----------
Molecular target: Aurora kinase B (Homo sapiens, UniProt Q96GD4)
Sequence (Q96GD4 whole entry, the tested form may be a part): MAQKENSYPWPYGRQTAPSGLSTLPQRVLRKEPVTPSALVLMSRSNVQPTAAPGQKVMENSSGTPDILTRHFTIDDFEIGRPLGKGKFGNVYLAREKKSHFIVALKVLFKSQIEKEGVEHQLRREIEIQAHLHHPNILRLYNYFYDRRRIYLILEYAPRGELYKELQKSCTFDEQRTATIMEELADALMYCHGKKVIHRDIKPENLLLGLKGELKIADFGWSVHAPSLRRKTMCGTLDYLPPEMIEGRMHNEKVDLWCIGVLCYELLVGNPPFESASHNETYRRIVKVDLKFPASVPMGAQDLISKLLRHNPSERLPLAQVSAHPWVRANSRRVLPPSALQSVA
Experiment: Binding affinity to human AURKB (D25 to A303 residues) expressed in mammalian expression system by KINOMEscan assay
attribute measured: Kd

(Q) Item `CC(C)CN(C(=O)c1cccnc1)c1c2ccccc2c(=O)n2c1[nH]c1ccccc12` has what recorded Kd?
(A) ≥ 5 µM

----------
Biological target: Macrophage colony-stimulating factor 1 receptor (Homo sapiens)
Sequence (P07333 whole entry, the tested form may be a part): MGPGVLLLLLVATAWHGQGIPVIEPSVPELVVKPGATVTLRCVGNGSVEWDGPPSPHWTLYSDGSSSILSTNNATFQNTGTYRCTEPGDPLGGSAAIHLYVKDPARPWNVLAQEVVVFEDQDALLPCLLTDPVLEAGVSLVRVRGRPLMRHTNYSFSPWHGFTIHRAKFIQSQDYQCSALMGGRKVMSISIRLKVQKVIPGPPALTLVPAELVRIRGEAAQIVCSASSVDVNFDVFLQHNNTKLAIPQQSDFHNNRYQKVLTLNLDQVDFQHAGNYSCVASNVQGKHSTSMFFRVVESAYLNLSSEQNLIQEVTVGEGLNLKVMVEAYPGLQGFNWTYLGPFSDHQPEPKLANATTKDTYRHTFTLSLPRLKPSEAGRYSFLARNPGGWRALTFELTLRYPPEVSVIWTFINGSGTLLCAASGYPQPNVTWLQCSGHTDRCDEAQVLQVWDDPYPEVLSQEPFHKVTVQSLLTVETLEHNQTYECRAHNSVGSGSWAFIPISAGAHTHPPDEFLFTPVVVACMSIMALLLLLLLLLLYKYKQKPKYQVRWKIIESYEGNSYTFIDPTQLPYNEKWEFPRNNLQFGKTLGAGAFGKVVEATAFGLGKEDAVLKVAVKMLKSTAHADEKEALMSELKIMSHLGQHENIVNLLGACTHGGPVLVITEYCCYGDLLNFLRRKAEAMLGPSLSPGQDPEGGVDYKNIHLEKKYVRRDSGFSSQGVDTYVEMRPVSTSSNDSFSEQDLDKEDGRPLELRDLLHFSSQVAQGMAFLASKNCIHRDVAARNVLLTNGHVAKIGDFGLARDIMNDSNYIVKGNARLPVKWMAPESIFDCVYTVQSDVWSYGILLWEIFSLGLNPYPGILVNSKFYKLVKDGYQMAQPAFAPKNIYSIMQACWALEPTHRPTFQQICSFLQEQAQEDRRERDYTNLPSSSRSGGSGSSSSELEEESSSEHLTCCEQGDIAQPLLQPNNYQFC
Experiment: Binding affinity to human CSF1R (I564 to S939 residues) expressed in bacterial expression system by KINOMEscan assay
pKd: −log10 of the molar value.
attribute measured: pKd

(Q) Which value of pKd has been reported for `CC(C)CN(C(=O)c1cccnc1)c1c2ccccc2c(=O)n2c1[nH]c1ccccc12` in the records?
(A) ≤ 5.30

----------
Target: Serine/threonine-protein kinase DCLK1 (Homo sapiens, UniProt O15075)
Sequence (O15075 whole entry): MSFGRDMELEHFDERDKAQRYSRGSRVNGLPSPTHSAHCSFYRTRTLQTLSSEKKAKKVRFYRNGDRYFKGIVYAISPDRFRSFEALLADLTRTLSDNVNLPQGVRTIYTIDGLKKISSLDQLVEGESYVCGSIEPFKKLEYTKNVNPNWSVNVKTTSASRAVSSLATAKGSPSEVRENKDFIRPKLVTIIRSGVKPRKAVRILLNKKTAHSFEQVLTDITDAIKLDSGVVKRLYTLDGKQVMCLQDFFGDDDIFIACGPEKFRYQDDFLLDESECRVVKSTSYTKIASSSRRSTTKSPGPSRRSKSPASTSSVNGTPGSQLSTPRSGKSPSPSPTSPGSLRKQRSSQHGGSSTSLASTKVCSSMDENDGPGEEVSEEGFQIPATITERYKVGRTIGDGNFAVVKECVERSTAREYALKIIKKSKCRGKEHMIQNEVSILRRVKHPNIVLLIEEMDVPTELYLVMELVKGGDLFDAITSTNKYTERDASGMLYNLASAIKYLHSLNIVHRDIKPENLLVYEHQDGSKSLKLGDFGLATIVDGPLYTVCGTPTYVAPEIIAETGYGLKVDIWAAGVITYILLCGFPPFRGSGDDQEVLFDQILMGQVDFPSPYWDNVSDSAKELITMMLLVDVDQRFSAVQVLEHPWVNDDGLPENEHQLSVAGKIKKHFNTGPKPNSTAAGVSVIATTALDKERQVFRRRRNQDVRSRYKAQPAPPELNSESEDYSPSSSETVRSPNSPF
pKd: −log10 of the molar value.
attribute measured: pKd

(Q) State the recorded pKd for this entry: `CC(C)CN(C(=O)c1cccnc1)c1c2ccccc2c(=O)n2c1[nH]c1ccccc12`
(A) ≤ 5.30

----------
Target: Dual specificity mitogen-activated protein kinase kinase 1 (Homo sapiens)
Assay: Binding affinity to full length human MEK1 (M1 to V393 residues) expressed in mammalian expression system by KINOMEscan assay
pKd: −log10 of the molar value.
attribute measured: pKd

(Q) Report pKd for `CC(C)CN(C(=O)c1cccnc1)c1c2ccccc2c(=O)n2c1[nH]c1ccccc12` tested on Dual specificity mitogen-activated protein kinase kinase 1 (Homo sapiens).
(A) ≤ 5.30

----------
Target: SRSF protein kinase 3 (Homo sapiens, UniProt Q9UPE1)
Sequence (Q9UPE1 whole entry, the tested form may be a part): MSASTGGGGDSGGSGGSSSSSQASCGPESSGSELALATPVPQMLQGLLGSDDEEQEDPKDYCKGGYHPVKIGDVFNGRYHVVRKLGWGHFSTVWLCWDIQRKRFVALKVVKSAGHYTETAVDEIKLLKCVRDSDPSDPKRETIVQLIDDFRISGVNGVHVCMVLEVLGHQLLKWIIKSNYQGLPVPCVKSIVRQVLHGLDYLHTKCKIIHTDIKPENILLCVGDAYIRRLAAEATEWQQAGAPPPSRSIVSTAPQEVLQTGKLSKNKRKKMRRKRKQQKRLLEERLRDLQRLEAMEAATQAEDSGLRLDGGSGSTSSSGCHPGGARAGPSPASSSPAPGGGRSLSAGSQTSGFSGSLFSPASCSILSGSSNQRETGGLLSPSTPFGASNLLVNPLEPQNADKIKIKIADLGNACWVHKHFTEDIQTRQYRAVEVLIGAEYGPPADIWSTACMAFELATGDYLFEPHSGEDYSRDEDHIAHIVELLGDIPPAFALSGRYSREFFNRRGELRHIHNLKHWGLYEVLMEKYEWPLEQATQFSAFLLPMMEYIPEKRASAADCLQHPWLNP
Test: Binding affinity to human SRPK3 (P41 to P567 residues) expressed in bacterial expression system by KINOMEscan assay
attribute measured: Kd

(Q) // Kd lookup, key: `CC(C)CN(C(=O)c1cccnc1)c1c2ccccc2c(=O)n2c1[nH]c1ccccc12`
(A) ≥ 5 µM

----------
Molecular target: Activin receptor type-1B (Homo sapiens, UniProt P36896)
Sequence (P36896 whole entry): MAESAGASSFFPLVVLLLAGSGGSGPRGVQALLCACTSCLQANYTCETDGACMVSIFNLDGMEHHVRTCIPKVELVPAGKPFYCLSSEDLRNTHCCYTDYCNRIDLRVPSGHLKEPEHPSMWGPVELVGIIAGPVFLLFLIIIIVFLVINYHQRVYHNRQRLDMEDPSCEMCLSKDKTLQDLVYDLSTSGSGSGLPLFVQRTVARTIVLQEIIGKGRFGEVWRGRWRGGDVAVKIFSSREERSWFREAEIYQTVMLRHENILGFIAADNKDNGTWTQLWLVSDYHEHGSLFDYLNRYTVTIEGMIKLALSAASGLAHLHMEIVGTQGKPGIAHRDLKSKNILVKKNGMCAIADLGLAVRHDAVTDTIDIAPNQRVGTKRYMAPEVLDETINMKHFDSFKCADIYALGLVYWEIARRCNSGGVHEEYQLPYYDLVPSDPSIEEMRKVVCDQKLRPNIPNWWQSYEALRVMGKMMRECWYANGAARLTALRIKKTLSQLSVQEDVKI
attribute measured: Kd

(Q) Fill in the blank: the reported Kd of `CC(C)CN(C(=O)c1cccnc1)c1c2ccccc2c(=O)n2c1[nH]c1ccccc12` is ____.
(A) ≥ 5 µM

----------
Biological target: Inhibitor of nuclear factor kappa-B kinase subunit alpha (Homo sapiens)
Experiment: Binding affinity to full length human IKKalpha (M1 to E745 residues) expressed in mammalian expression system by KINOMEscan assay
pKd: −log10 of the molar value.
attribute measured: pKd

(Q) Data request, read-out pKd, for `CC(C)CN(C(=O)c1cccnc1)c1c2ccccc2c(=O)n2c1[nH]c1ccccc12`
(A) ≤ 5.30

----------
Biological target: Aurora kinase A (Homo sapiens, UniProt O14965)
Sequence (O14965 whole entry): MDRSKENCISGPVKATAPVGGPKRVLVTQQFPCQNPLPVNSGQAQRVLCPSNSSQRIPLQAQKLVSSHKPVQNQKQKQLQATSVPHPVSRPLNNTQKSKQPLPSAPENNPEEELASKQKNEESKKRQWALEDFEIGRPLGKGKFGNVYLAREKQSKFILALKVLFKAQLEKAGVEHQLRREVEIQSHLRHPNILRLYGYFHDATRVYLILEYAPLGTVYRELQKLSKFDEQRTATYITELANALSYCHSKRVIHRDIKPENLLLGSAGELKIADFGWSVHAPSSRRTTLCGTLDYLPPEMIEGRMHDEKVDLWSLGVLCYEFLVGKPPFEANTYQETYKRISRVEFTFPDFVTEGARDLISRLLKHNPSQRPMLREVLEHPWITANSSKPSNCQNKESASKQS
attribute measured: Kd

(Q) Return reported Kd; argument: `CC(C)CN(C(=O)c1cccnc1)c1c2ccccc2c(=O)n2c1[nH]c1ccccc12`
(A) ≥ 5 µM

----------
Target: Epidermal growth factor receptor (Homo sapiens)
pKd: −log10 of the molar value.
attribute measured: pKd

(Q) Find the recorded pKd belonging to `CC(C)CN(C(=O)c1cccnc1)c1c2ccccc2c(=O)n2c1[nH]c1ccccc12` and report it.
(A) ≤ 5.30

----------
Biological target: Serine/threonine-protein kinase ULK2 (Homo sapiens, UniProt Q8IYT8)
Sequence (Q8IYT8 whole entry): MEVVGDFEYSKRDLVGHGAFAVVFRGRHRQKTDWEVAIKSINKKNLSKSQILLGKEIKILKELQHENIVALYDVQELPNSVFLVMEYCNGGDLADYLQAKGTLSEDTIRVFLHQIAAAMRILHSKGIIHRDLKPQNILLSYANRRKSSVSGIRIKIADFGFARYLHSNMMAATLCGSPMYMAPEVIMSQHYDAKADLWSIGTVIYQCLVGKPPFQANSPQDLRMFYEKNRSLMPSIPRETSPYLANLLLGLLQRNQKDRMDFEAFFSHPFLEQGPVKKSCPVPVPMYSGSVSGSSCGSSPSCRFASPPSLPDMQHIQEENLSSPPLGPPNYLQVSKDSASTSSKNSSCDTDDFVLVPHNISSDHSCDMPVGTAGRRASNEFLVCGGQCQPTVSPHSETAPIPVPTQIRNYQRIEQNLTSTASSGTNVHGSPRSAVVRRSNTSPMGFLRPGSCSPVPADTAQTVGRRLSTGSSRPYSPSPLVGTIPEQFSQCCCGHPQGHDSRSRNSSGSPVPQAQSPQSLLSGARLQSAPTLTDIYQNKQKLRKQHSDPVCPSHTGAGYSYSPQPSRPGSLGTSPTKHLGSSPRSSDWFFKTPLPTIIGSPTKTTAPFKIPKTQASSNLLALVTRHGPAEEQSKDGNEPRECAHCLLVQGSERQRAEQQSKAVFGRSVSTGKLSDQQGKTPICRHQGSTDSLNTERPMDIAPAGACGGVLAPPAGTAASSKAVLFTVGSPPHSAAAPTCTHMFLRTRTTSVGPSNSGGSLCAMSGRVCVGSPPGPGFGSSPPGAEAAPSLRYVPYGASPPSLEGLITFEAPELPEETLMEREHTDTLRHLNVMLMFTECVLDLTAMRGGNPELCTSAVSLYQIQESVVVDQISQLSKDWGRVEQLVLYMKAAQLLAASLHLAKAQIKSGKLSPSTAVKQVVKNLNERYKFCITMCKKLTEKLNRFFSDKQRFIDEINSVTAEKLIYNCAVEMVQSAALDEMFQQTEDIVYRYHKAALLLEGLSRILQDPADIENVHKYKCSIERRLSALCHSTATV
attribute measured: Kd

(Q) Item `CC(C)CN(C(=O)c1cccnc1)c1c2ccccc2c(=O)n2c1[nH]c1ccccc12` has what recorded Kd?
(A) ≥ 5 µM
